Parameter inhibition at 10 µM: see the listing below.
# testedOn: Tyk2 kinase domain (DH1) (Homo sapiens (Human), UniProt P29597)
# Sequence (P29597 897-1176): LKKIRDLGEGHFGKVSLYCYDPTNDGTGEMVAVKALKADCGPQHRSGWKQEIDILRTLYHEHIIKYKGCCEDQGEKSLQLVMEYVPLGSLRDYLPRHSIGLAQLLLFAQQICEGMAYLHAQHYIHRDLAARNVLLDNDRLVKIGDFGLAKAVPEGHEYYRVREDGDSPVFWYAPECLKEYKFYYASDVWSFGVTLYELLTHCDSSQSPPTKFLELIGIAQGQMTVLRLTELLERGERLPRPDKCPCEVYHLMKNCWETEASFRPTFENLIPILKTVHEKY
# assayOverview: Tyk2 Radioactive Kinase Assay
# Format: biochemical
# assaySetup: 10 μM compound; 10 μM ATP; read-out: Tyk2 JH1% Inhibition @ 10 μM
# Description: The Tyk2 and JAK2 radioactive kinase assay measures the percent inhibition at the Tyk2 kinase domain (DH1) and the percent inhibition at the JAK2 kinase domain (JH1). Results of the assay are expressed as percent inhibition at 10 μM.

• CNc1cc(Nc2cccn([C@H]3CCN(CCC#N)C3)c2=O)nc2c(C(=O)N[C@@H]3C[C@@H]3F)cnn12 = < 50%
• CNc1cc(-c2cn(CCN3CCOCC3)c3ncccc23)nc2c(C(=O)N[C@H]3CC[C@@H]3O)cnn12 = < 50%
• CNc1cc(Nc2cccn([C@H]3CCC[C@@H](OC)C3)c2=O)nc2c(C(=O)NCC(C)(C)CO)cnn12 [I-861] = < 50%
• CNc1cc(Nc2cccn([C@@H]3CCC[C@@H]3O)c2=O)nc2c(C(=O)N[C@H]3CC[C@@H]3OC)cnn12 = < 50%
• CNc1cc(Nc2cccn(C3CCC[C@H](OC)C3)c2=O)nc2c(C(=O)NCC(C)(C)CO)cnn12 (stereo partly shown) = < 50%

QUERY: inhibition at 10 µM for CNc1cc(Nc2cccn([C@H]3CCN(C)CC3(F)F)c2=O)nc2c(C(=O)NC3CC3)cnn12 ?
RESULT: < 50%

QUERY: Fill in the blank: the reported inhibition at 10 µM of CNc1cc(Nc2cccn(C3CCCN(CCC#N)C3)c2=O)nc2c(C(=O)N[C@@H]3C[C@@H]3F)cnn12 (stereo partly shown) is ____.
RESULT: < 50%

QUERY: What inhibition at 10 µM value was documented for this compound, CNc1cc(-c2cn(CCN3CCOCC3)c3ncccc23)nc2c(C(=O)N[C@@H]3CC[C@H]3O)cnn12 ?
RESULT: < 50%

QUERY: What measured inhibition at 10 µM goes with CNC(=O)c1occc1Nc1cc(NC)n2ncc(C(=O)NC3CC3)c2n1 ?
RESULT: < 50%

QUERY: // inhibition at 10 µM lookup, key: CNc1cc(Nc2cccn([C@H]3CCCN(CCF)C3)c2=O)nc2c(C(=O)NC3CC3)cnn12
RESULT: < 50%

QUERY: Consider the compound CNc1cc(Nc2cccc(-c3cn(C)nc3F)n2)nc2c(C(=O)N[C@H]3CC[C@H]3O)cnn12 and give its measured inhibition at 10 µM.
RESULT: < 50%

QUERY: Look up inhibition at 10 µM: CNc1cc(Nc2cccn([C@H]3CCCC[C@H]3OC)c2=O)nc2c(C(=O)NCC(C)(C)CO)cnn12
RESULT: < 50%

QUERY: Record request: inhibition at 10 µM value, item CNc1cc(Nc2cccn([C@H]3CCC[C@@H](OC)C3)c2=O)nc2c(C(=O)N[C@@H]3C[C@@H]3F)cnn12
RESULT: < 50%

QUERY: Find the recorded inhibition at 10 µM belonging to CNc1cc(Nc2cc(Cl)cn(C3CCOCC3)c2=O)nc2c(C(=O)N[C@@H]3CC[C@H]3O)cnn12 and report it.
RESULT: < 50%

QUERY: // query inhibition at 10 µM value for entry CNc1cc(-c2cn(CCN3CCN(C)CC3)c3ncccc23)nc2c(C(=O)N[C@@H]3CC[C@H]3O)cnn12
RESULT: < 50%

QUERY: So what does the record say about inhibition at 10 µM for CNc1cc(Nc2cccn3ccnc23)nc2c(C(=O)N[C@H]3CC[C@@H]3OC)cnn12 ?
RESULT: < 50%
